experiment: yeast display, Sf9 membrane polyspecificity reagent, FACS + sequencing; frameworks hold sequencing errors
observable: polyreactivity (PSR sort gate)

Record excerpt, results attached:
{"columns": ["query sequence", "result"],
 "data": [
  ["QVQLVESGGGLVQAGGSLRLICDASGSIFGDYVMGWYSPAPGKERELVAAITSATSTYYADSVKGRFTISRDNAKNTVYLQMNSLKPEDTAVYYCKADATYPLWPNIWYDYDYWGQGTQVTVSS", "low polyreactivity"],
  ["QVQLVESGGGLVQAGGSLRLSCAASGRTFRNNAMGWYRQAPGKEREFVAVISNTGGSTYYADSVKGRFTISRDNAKNTVYLQMYSLKPEDTAVYYCAVRPRYSQYYYWGQGTQVTVSS", "high polyreactivity"],
  ["RVQLQESGGGLVQAGGSLRLSCAASGTIFIRGDMGWYRQAPGKEREFVATIDTGSNTYYADSEKGRFTISRDNAKNAVYLQMNCQQPGDTAVYYCVVDYQLSGRLRYWGQGTQVTLSS", "low polyreactivity"],
  ["QVHLVESGGGLVQAGGSLRLSCAASGSTFDVYAMGWYRQAPRKERELVAVINTSGTRTYYADSVKGRFTISRDNAKNSVYLLMNSLKPEDTAVSYCNAGGNLEMIYWGQGTQVTVSS", "low polyreactivity"],
  ["QVQLVESGGGLVQAGGSLRLSCAASGIIFINYAMGWYRQAPGKEWELVAAITSSGGSTYYADSVKGRFTISRDNAKNTVYLQMNSLKPEDTAVYYCAAVSSYWGQGTQVTVSS", "low polyreactivity"],
  ["QVQLVESGGGLVQAGGRLRLSCAASGITFTFNAMGWYRQAPGKERELVAAITWSGGSTIYADSVKGRFTFSRDNAKNTVYLQMNSQKPEDTAVYNCARDTELYVRWLDYWGQGSQVTVSS", "low polyreactivity"],
  ["QVQLVESGGGLVQAGGSLRLSCAASGLIFPSYAMGWYRQAPGKERELVAAITFSGSDTNYADSVKGRFTISRDNAKNTVYLQMNSLKPEDTAVYYCAAAYFDFWGWLHDYWGQGTQVTVSS", "low polyreactivity"],
  ["QVQLVESGGGLVQAGGSLRLSCAASGRTFTGYAMGWYRQAPGKERELVAAISQGSGSTYYADSVKGRFTISRDNAKNTVYLQMNSLKPEDTAVYYCAAERAYYQTGHYYWGQGTQVTVSS", "high polyreactivity"]
]}

## Input Item "QVQLVESGGGLVQAGGSLRLSCAASGSIFRGNAMGWYRQAPVKERELVAGINRAGSTKYADSVKGRFTISRDNAKNTVYLQMNSLKPEDTAVYYCAAVRYERGLWSDYWGQGTQVTVSS" has what recorded polyreactivity (PSR sort gate)?
## Output high polyreactivity

## Input Item "QVQLVESGGGLVQAGGSLRLSCAASGGIFSPNAMGWYRQAPGKERELVAAISSNGGSTNYADSVKGRFTISRDHAKNTVYLQMNSLKPEDTAVYYCAGLQKRRSYWRPFYWGQGTQVTVSS" has what recorded polyreactivity (PSR sort gate)?
## Output low polyreactivity

## Input Item "QVQLVESGVGLVQAGGSLLLSCSSSGRIFDLNAMGWYRQAPGKERELVAVIDRDGSTYYADSVKGRFTISRDNAKNTVYLQMNSLKPEDTAVYYCNKYWYSRHVRYWAYYAEQRYDYWGQGTQVTVSS" has what recorded polyreactivity (PSR sort gate)?
## Output low polyreactivity

## Input Item "QVQLVESGGGLVQAGGSLRLSCAASGRIFVQYAMGWYRQAPGKERELVAAISYSGGRTYYADSVKGRFTISRDNAKNTVYLQMNSLKPEDTAVYYCAAVRAGYYGYWGKGTQVTVSS" has what recorded polyreactivity (PSR sort gate)?
## Output high polyreactivity

## Input Item "QVQLVESGGGLVQAGGSLRLSCAASGRIFQFNVMGWYRQAPGKERELVAAISRGGGITDYADSVKGRFTISRDNAKNTVYLQMNSLKPEDTAVYYCAAVLPARGYYWGQGTQVTVSS" has what recorded polyreactivity (PSR sort gate)?
## Output high polyreactivity

## Input Item "QVQLVESGGGLVQAGGSLRLSCAASVSTFVGNAMGWYRQAPGKERELHAAISSGGSRTNYADSVKGRFTISRDNAKNTVYLQMNSLKPEDTAVYYCIAVFPRWQGSGRFAGGDYWGQGTQVTLSS" has what recorded polyreactivity (PSR sort gate)?
## Output high polyreactivity

## Input Item "QVQLVESVGGLVQAGGSLRLSCAASGFTFVYNAMGWYRQAPGKEREMVAAISSRGGSTFYADSVKGRFTISRDNAKNTVYLQMNSLKPEDTAVYYCNAVPGWTYDYWGQGTQVTVSS" has what recorded polyreactivity (PSR sort gate)?
## Output high polyreactivity

## Input Item "QVQLVESGGGLVQAGGSLRLSCAASGLTIFVNAMGWYRQAPGKERELVATISCGGSTYYADSVKGRFTISRDNANNTVYLQLNSLKPEDSSVFYCNAADVGGQWWYPYTYNYWGQGTQVTVSS" has what recorded polyreactivity (PSR sort gate)?
## Output low polyreactivity

## Input Item "QVPLVESGGGLVQAGGSLRISCAASGSTIVGYSMGWYRQAHGKERELVADITSGGGITYYADSVKGRFTISRDNAKNTVYLQMNSLKPEYSAVYYCAARVVEIFHWAGDYWGQGTQVTVSS" has what recorded polyreactivity (PSR sort gate)?
## Output low polyreactivity

## Input Item "QVQLVESGGGLVQAGGSLRLSCAASGLISLYYAMGWYRQAPGKERELVARITGSGGDTYYADSVKGRFTISRDNAKNTVYLQMNSLKPEDTAVSYCAAPALDWGQGTQVTVSS" has what recorded polyreactivity (PSR sort gate)?
## Output low polyreactivity
